As shown below, each of these compounds has a reported pIC50 value.
- measured on: NK-3 receptor (Cavia porcellus, UniProt P30098)
- Construct: freshly collected guinea pig cerebral cortex; from tissue; host or cells: guinea pig cerebral cortex membranes
- protocol text: Antagonism of iodinated tachykinin binding to NK-3 receptor (125I-Bolton Hunter labeled Lys-4 eledoisin, guinea pig cerebral cortex membranes)
- measurement parameters: guinea pig cerebral cortex; mean of several experiments; read-out: NK-3 IC50
The read-out pIC50 is expressed as -log10 of concentration in moles per litre.

As a guide, the following entries are already answered.
{"columns": ["compound", "pIC50"],
 "data": [
  ["NC(=O)C1(c2ccccc2)CCN(CCC2(c3ccc(Cl)c(Cl)c3)CC(=O)N(Cc3ccccc3)C2)CC1 (stereo not shown)", 6.69],
  ["COC(=O)[C@@H](NC(=O)C1(c2ccccc2)CCN(CCC2(c3ccc(Cl)c(Cl)c3)CCN(C(=O)c3ccccc3)C2)CC1)[C@@H](C)O (stereo partly shown)", 6.69],
  ["COc1cccc(OC)c1C(=O)N1CCC(CCN2CCC3(CC2)C(=O)NCN3c2ccccc2)(c2ccc(Cl)c(Cl)c2)C1 (stereo not shown)", 6.74]
]}

# context switch: different compound, same pIC50
For the compound O=C(c1ccccc1)N1CCC(CCN2CCC3(CC2)C(=O)NCN3c2ccccc2)(c2ccc(Cl)c(Cl)c2)C1 (stereo not shown) , report pIC50.
5.92

====

- measured on: NK-3 receptor (Cavia porcellus)
- Construct: freshly collected guinea pig cerebral cortex; from tissue; host or cells: guinea pig cerebral cortex membranes
- Sequence (P30098 1-440): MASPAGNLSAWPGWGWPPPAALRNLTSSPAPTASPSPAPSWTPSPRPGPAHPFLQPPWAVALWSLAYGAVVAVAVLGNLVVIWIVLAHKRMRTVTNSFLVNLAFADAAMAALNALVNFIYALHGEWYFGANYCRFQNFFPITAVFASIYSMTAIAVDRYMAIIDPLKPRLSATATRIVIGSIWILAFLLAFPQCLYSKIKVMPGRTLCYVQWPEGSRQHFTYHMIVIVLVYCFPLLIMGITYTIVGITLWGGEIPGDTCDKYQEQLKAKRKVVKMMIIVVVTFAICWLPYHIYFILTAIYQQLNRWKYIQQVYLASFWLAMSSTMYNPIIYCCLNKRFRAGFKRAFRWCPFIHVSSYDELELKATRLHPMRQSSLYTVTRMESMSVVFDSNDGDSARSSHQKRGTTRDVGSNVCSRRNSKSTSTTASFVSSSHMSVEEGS
- protocol text: Antagonism of iodinated tachykinin binding to NK-3 receptor (125I-Bolton Hunter labeled Lys-4 eledoisin, guinea pig cerebral cortex membranes)
Where a name gives a salt, the structure may show the parent alone.
observation type: IC50 (µM)
Answer with a number only, understood to be in µM.

{"columns": ["compound", "measured on", "IC50 [µM]"],
 "data": [
  ["COc1cc(C(=O)N2CCC(CCN3CCC(C(N)=O)(c4ccccc4)CC3)(c3ccc(Cl)c(Cl)c3)C2)cc(OC)c1OC (racemic) [Example 3A, hydrochloride]", "NK-3 receptor (Cavia porcellus)", 0.0542]
]}

For the compound COc1ccccc1CC(=O)N1CCC(CCN2CCC(C(N)=O)(c3ccccc3)CC2)(c2ccc(Cl)c(Cl)c2)C1 (centres unmarked) , report IC50.
0.041

For the compound COc1cccc(OC)c1C(=O)N1CCC(CCN2CCC(C(N)=O)(c3ccccc3)CC2)(c2ccc(Cl)c(Cl)c2)C1 (centres unmarked) , report IC50.
0.065

For the compound COc1ccc(C(=O)N2CCC(CCN3CCC(C(N)=O)(c4ccccc4)CC3)(c3ccc(Cl)c(Cl)c3)C2)c(OC)c1 (centres unmarked) , report IC50.
0.065

For the compound NC(=O)C1(c2ccccc2)CCN(CCC2(c3ccc(Cl)c(Cl)c3)CCN(C(=O)c3ccccc3)C2)CC1 (centres unmarked) , report IC50.
0.162
